# study-system: human CYP1A2 (Homo sapiens, UniProt P05177)
# Sequence (P05177 whole entry): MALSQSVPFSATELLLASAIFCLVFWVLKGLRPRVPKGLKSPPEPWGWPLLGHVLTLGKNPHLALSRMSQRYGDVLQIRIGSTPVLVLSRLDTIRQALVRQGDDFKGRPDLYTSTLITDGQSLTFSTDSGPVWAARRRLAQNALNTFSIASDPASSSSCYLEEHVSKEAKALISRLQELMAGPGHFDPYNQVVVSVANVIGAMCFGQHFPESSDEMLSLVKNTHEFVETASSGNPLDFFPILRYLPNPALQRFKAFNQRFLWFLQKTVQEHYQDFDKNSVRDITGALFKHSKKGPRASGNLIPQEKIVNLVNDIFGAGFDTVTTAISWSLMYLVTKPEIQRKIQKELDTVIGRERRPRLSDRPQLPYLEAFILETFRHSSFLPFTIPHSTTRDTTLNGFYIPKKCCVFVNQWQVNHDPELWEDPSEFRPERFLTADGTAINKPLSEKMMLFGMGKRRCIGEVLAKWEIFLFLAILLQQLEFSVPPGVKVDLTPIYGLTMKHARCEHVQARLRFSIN
# protocol-notes: biochemical
# assay-context: CYP1A2 AC50 (half-maximal activity concentration)
result-type: AC50 (µM)
Only the number, expressed in µM, is required.

[ask] Entry Oc1c(I)cc(I)cc1I has what AC50?
[reply] 37.2

[ask] Entry CCOP(=O)(OCC)OC(=CCl)c1ccc(Cl)cc1Cl has what AC50?
[reply] 6.58

[ask] Entry Brc1ccc(Oc2ccc(Br)cc2)cc1 has what AC50?
[reply] 18.8

[ask] Entry CCNc1nc(NC(C)C)nc(OC)n1 has what AC50?
[reply] 28.4

* * *

result-type: IC50 (µM)
Only the number, expressed in µM, is required.

[ask] Find IC50 (human CYP2C9 (Homo sapiens, UniProt P11712)) for the entry CC(=O)[O][Sn]([c]1ccccc1)([c]1ccccc1)[c]1ccccc1 [Triphenyltin acetate]
[reply] 1.36

[ask] Find IC50 (human CYP2C9 (Homo sapiens, UniProt P11712)) for the entry CCCCCCCCCCCCCCCCCC(=O)O.OCCN(CCO)CCO [Triethanolamine stearate]
[reply] 1.38

[ask] Find IC50 (human CYP2C9 (Homo sapiens, UniProt P11712)) for the entry c1cc[c]([Bi]([c]2ccccc2)[c]2ccccc2)cc1
[reply] 0.73
